- STUDY_SYSTEM: T1, murine IL-11 (mouse, UniProt P47873 22-199)
- T1 sequence: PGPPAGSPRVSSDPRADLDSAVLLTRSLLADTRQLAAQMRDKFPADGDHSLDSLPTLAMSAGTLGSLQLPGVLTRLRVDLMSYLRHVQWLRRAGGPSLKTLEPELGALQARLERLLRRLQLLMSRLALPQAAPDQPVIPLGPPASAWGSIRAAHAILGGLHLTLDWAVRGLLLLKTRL
- PROTOCOL_DETAILS: cell-based or functional assay
OBSERVATION_TYPE: IC50, RGA 2
Answer format: value, then unit.

Solved cases below.
BINDER	OBSERVATION_TYPE	READOUT_VALUE
TPP-31282 (antibody, IgG4, V domains shown) VH: EVQLLESGGGLVQPGGSLRLSCAASGFTFSHYDMNWLRQAPGKGLEWVGVISYDGSNKFYADFVKGRFTISRDNSKNTLYLQMNSLRAEDTAVYYCARTPGSHFDYWGQGTLVTVSS VL: QSVLTQPPSASGTPGQRVTISCSGSSSNIGNNAVNWYQQLPGTAPKLLIYYDNLLPSGVPDRFSGSKSGTSASLAISGLRSEDEADYYCSAWDDSLNGVVFGGGTKLTVL	IC50, RGA 2	28 nM
TPP-31306 (antibody, IgG4, V domains shown) VH: EVQLLESGGGLVQPGGSLRLSCAASGFTFSHYDMNWLRQAPGKGLEWVGVISYDASNKFYADFVKGRFTISRDNSKNTLYLQMNSLRAEDTAVYYCARTPGSHFDYWGQGTLVTVSS VL: QSVLTQPPSASGTPGQRVTISCSGSSSNIGNNAVNWYQQLPGTAPKLLIYYDDLLPSGVPDRFSGSKSGTSASLAISGLRSEDEADYYCSAWDDSLSGVVFGGGTKLTVL	IC50, RGA 2	60 nM

Turning to the following binder.
# binder TPP-31298 (antibody, IgG4, V domains shown) VH: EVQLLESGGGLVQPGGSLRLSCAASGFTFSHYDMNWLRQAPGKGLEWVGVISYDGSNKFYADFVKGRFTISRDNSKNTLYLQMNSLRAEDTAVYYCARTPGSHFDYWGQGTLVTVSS VL: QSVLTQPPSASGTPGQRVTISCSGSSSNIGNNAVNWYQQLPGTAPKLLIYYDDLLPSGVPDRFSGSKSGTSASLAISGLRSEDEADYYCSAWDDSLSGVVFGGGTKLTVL ; its IC50, RGA 2 = 6.22 nM

Value source: patent US20240317847A1
